tested on: ATP; assay: switch fluorescence ratio, 500 uM ATP over buffer (Cy3 cluster intensity, sum of 5 cycles each) (fold (ratio)); higher = stronger signal-on switching upon ATP binding; sequences stand for … in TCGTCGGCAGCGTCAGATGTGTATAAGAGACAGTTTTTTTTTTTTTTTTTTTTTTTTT…TC; settings: aptamer strand: ATP DNA aptamer (quencher-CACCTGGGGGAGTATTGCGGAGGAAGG + anchor), 100 nM annealed; ATP concentration: 500 uM;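 note: ATP exposure 15 min at 22 °C before imaging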
Catalogue of switch fluorescence ratio values
Please state the value as a number alone, without comment.

// known answers, use as guide
Looking up GTGATAAAGG , I found its switch fluorescence ratio recorded as 1.01

Looking up CGGACGTTTT , I see its switch fluorescence ratio listed as 1.17

Sample TGGGTACACG ; switch fluorescence ratio observed: 1

# sequence CTTGTTTGGC ; its switch fluorescence ratio = 1.02

// switch fluorescence ratio value for GAGGTGGCAG : 1.01

Kindly note the recorded switch fluorescence ratio for TTATTTGGTA , which is 0.986

Could you now look at the following sequence, please?
Measured switch fluorescence ratio, GCCTTCATGG : 0.98
